test system: SK-MEL-28 melanoma; experiment: NCI-60 one-dose screen, 48 h (100 = growth as untreated, 0 = no growth, -100 = all killed); details: 10 µM unless noted
Compounds without any hit were thinned out: in the full panel of roughly 83,000, 20% have a hit.
growth reference
Please reply with the bare figure in % and do not write the unit itself.

{"molecule": "CCN(CC)CCNC(=O)c1ccc(-c2nc3ccc4[nH]ncc4c3c3c2CCCC3)cc1", "growth / %": 73.2}
{"molecule": "N=c1c2c(=N)n3c(nc2nc2n1-c1ccccc1Sc1ccccc1-2)sc1cc(Cl)ccc13", "growth / %": 25}
{"molecule": "CC[C@@H](c1ccc2cc(OC)ccc2c1)C(C)(C)C(=O)F", "growth / %": 106}
{"molecule": "CCCCCSB(SCCCCC)c1ccccc1", "growth / %": 110}
{"molecule": "CCN1C(=O)N(CC)C2C1NN=c1s/c(=C\\c3ccccc3Br)c(=O)n12 (stereo unspecified)", "growth / %": 57.4}
{"molecule": "Fc1ccc(COc2ccc(Nc3ncnc4sc5c(c34)CCCC5)cc2)cc1", "growth / %": 91.5}

Asked: Query for SK-MEL-28 melanoma: what growth does the record show for COc1ccc2nc(SCC(=O)Nc3ccccc3C)[nH]c2c1 ?
Given back: 95.8

Asked: For COc1ccccc1NC(=O)c1ccc(/C=C/C(=O)c2nccn2C)cc1 then?
Given back: -45.9

Asked: Then what about the molecule COc1cccc(/C=C/C(=O)c2cc3c(N)c(C(=O)Nc4cccc(Cl)c4C)sc3nc2C)c1 ?
Given back: 16.3

Asked: Another molecule to check: COc1cc2c3c(c1O)-c1ccccc1[C@@H]1OC(=O)N(CC2)[C@H]31
Given back: 118

Asked: Check CC1COCC(C)N1C1=C(Cl)C(=O)c2ccccc2C1=O (stereo unspecified) too.
Given back: 87
